Data provenance is PubChem BioAssay (NCI).

Test system: MDA-MB-231 breast
experiment-summary: NCI-60 one-dose screen, 48 h (100 = growth as untreated, 0 = no growth, -100 = all killed)
experimental-conditions: 10 µM unless noted
Compounds without any hit were thinned out: in the full panel of roughly 83,000, 20% have a hit.

# compound, experimental-system, growth (%)
rows = [
    ("C=C(C)C(=O)O[C@H]1C[C@@]2(C)OC(=CC2=O)/C(CO)=C\\[C@H]2OC(=O)C(=C)[C@H]12", "MDA-MB-231 breast", -54),
    ("C=C(C)[C@@H]1CC[C@]2(C)[C@H](CC=C3[C@@H]4CC(C)(C)CC[C@]4(C(=O)NCC#CCN4CCN(C)CC4)CC[C@]32C)[C@@]1(C)CCC#N", "MDA-MB-231 breast", 47.8),
    ("O=C(Nc1ccc(F)cc1)c1cc(-c2ccc(F)cc2F)ccc1O", "MDA-MB-231 breast", 17.6),
    ("COc1ccc(CCN2C(=O)/C(=C/c3nc(CO)cs3)SC2=S)cc1", "MDA-MB-231 breast", 53.2),
    ("CC1OC(O[C@@H]2[C@H](O)C(CO)OC(O[C@H]3COC(O[C@H]4CC[C@]5(C)[C@H]6CC[C@]78OC[C@@]9(CCC(C)(C)C[C@H]97)[C@H](O)C[C@@]8(C)[C@]6(C)CC[C@H]5C4(C)C)[C@@H](OC4OC(CO)[C@@H](O)[C@@H](O)[C@@H]4O)[C@@H]3O)[C@H]2OC2OC[C@@H](O)[C@@H](O)[C@@H]2O)[C@@H](O)[C@@H](O)[C@H]1O (stereo not given in full)", "MDA-MB-231 breast", -72.2),
    ("C#CCOc1ccc(C(Nc2cc(Cl)ccc2Cl)c2nnnn2C2CCCCC2)cc1 (stereo not given)", "MDA-MB-231 breast", 73.7),
    ("Cc1ccc(-c2csc(N/N=C/c3nc4ccccc4n3C3CC3)n2)cc1", "MDA-MB-231 breast", 80.4),
    ("O=C(NCCCNc1cc(-c2cn(-c3ccccc3)nc2-c2cccc(O)c2)ccn1)Nc1cccc(C(F)(F)F)c1", "MDA-MB-231 breast", 18.6),
    ("COc1cc(/C=C2\\SC(=O)NC2=O)ccc1OCC(=O)Nc1ccc(C(=O)/C=C/c2cc3ccccc3nc2Cl)cc1", "MDA-MB-231 breast", 88.6),
    ("C#C[C@]1(O)CC[C@H]2[C@@H]3CC=C4c5sc(-c6ccccn6)nc5CC[C@]4(C)[C@H]3CC[C@@]21C", "MDA-MB-231 breast", 78.6),
    ("COc1ccc2c(c1)c(-c1nnc(N)nc1-c1cn(C)c3ccccc13)cn2C", "MDA-MB-231 breast", 91.1),
    ("CCOC(=O)/C=c1\\sc2n(c1=O)C1C(NN=2)N(CC)C(=O)N1CC (stereo not given)", "MDA-MB-231 breast", 66.8),
    ("CN1CCN(c2ccc(NC(=O)Nc3ccc4c(ccn4-c4cccc(C(N)=O)n4)c3)cc2C(F)(F)F)CC1", "MDA-MB-231 breast", 74.8),
    ("CC(C)=CCc1c2c(c(O)c3c1O[C@]14C(=C[C@@H]5C[C@H]1C(C)(C)O[C@@]4(C/C=C(/C)C(=O)O)C5=O)C3=O)CC(O)C(C)(C)O2 (stereo not given in full)", "MDA-MB-231 breast", 0.342),
    ("Cn1cc(-c2nnc(N)nc2-c2cn(C)c3ccc(F)cc23)c2cc(F)ccc21", "MDA-MB-231 breast", 94.6),
]

###

System: UO-31 renal
experiment-summary: NCI-60 one-dose screen, 48 h
experimental-conditions: 10 µM unless noted
The panel holds about 83,000 compounds, 20% with a hit somewhere; the sample as a whole holds those more often. Activity calls are given as the source filed them. Rule for the calls: active = growth percent below 10; inactive = the rest.
Labels: active, inactive

# record-smiles, qualitative-label
rows = [
    ("O=C1c2c(c3c4cc(Br)ccc4[nH]c3c3ccc4ccccc4c23)C(=O)N1CCN1CCCCC1", "inactive"),
    ("Cn1cc2c(c1)-c1c(sc3nc(-c4ccc(NC(=O)Nc5cc(C(C)(C)C)on5)cc4)cn13)CC2", "inactive"),
    ("N#C/C(=C\\c1ccc(N2CCCCC2)cc1)C(=O)Nc1sc2c(c1C#N)CCC2", "inactive"),
    ("COc1ccc(-c2nc(SCC(C)C)nc(N/N=C\\c3cccc([N+](=O)[O-])c3)c2C#N)cc1", "active"),
    ("COc1ccc(-c2nnc(/N=C3/C(=O)Nc4ccc(Br)cc43)o2)cc1", "inactive"),
    ("COc1cc2cc(Oc3ccc(NC(=O)Nc4cc(C(F)(F)F)cc(C(F)(F)F)c4)cc3)c(C)nc2cc1OCCN(C)C", "inactive"),
    ("c1cncc(-c2cn3nc(-c4c[nH]c5ccccc45)sc3n2)c1", "inactive"),
    ("Nc1c(C(=O)c2ccccc2)sc2nc(-c3cnccn3)cc(-c3cccs3)c12", "inactive"),
    ("CCN(CC)CCN1C(=O)c2c(c3c4cccnc4[nH]c3c3ccc4ccccc4c23)C1=O", "inactive"),
    ("O=C1c2c(c3c4cc(Br)ccc4[nH]c3c3ccc4ccccc4c23)C(=O)N1CCN1CCNCC1", "inactive"),
    ("O=C1[C@@H]2Cc3c([nH]c4ccccc34)[C@H](c3c(Cl)cccc3Cl)N2C(=O)CN1C1CCN(Cc2ccccc2)CC1", "inactive"),
    ("C=C(C)[C@@H]1CC[C@]2(C)[C@H](CC=C3[C@@H]4CC(C)(C)CC[C@]4(C(=O)NCC#CCN4CCN(C)CC4)CC[C@]32C)[C@@]1(C)CCC#N", "inactive"),
    ("O=c1cc(-c2ccccc2)nc2sc(-c3c[nH]c4ccc(Br)cc34)nn12", "inactive"),
    ("N/C(=N\\OC(=O)CSc1nc2ccccc2s1)c1ccc(Cl)cc1", "inactive"),
    ("Cc1ccc(NC(=O)c2cccc(CN3CCN(C)CC3)c2)cc1Oc1ccc(-c2[nH]nc3ncnc(N)c23)cc1", "inactive"),
    ("C#C[C@]1(O)CC[C@H]2[C@@H]3CC=C4c5sc(-c6ccccn6)nc5CC[C@]4(C)[C@H]3CC[C@@]21C", "inactive"),
    ("NC(=O)C(=Cc1ccc(Cl)cc1)C(N)=O", "inactive"),
    ("CN1CCN(c2nc(-c3csc(-c4ccncc4)n3)cc3ccccc23)CC1", "inactive"),
]

###

Test system: A549/ATCC NSCLC
experiment-summary: NCI-60 one-dose screen, 48 h (100 = growth as untreated, 0 = no growth, -100 = all killed)
experimental-conditions: 10 µM unless noted
About 83,000 compounds went through this panel and 20% of them were active in at least one assay; those are over-represented in the sample as a whole.

# record-smiles, growth, %
data = [
    ("O=C1/C(=C/c2ccc([N+](=O)[O-])cc2)SC(=Nc2ccccc2)N1Nc1ccccc1", 71.5),
    ("COc1cc2c3c(n(CCCN4CCCC4)c(=O)c2cc1OC)-c1cc2c(cc1C3=O)OCO2", -77.1),
    ("CC(=O)Nc1ccc(C)c(Nc2cc(-c3ccc(-n4cccn4)cc3)[nH]n2)c1", 60.2),
    ("CCCCCCNC(=O)Oc1ccc(/C(=C(\\C)c2ccc(OC)cc2)c2ccc(OCCN(C)C)cc2)cc1", 74.7),
    ("CC(C)N=C(N/C(N)=N/c1nc2ccccc2s1)NC(C)C", 69.3),
]

###

Test system: SF-268 CNS
experiment-summary: NCI-60 one-dose screen, 48 h (100 = growth as untreated, 0 = no growth, -100 = all killed)
experimental-conditions: 10 µM unless noted
The panel holds about 83,000 compounds, 20% with a hit somewhere; the sample as a whole holds those more often. The source made the active and inactive calls. The calls were made as follows: active = growth percent below 10; inactive = the rest.

# molecule, growth
records = [
    ("O=S(=O)(Nc1ccc2c(c1)OC(F)(F)O2)c1ccc(-c2cnc(C3CC3)o2)cc1", "60.6% (inactive)"),
    ("COc1ccc(-c2nnc(/N=C3/C(=O)Nc4ccc(Br)cc43)o2)cc1", "99.3% (inactive)"),
    ("Cn1cc(-c2nnc(N)nc2-c2cn(C)c3ccc(F)cc23)c2cc(F)ccc21", "78.5% (inactive)"),
    ("COc1cc(O)c2c(c1)/C=C/C[C@H](O)[C@H](O)C(=O)/C=C\\C[C@H](C)OC2=O", "34.9% (inactive)"),
    ("Cc1cccc(NC(c2cc3cccc4ccc5cccc2c5c43)c2nnnn2C(C)(C)C)c1C (centres undefined)", "91.1% (inactive)"),
    ("CN(c1ccc(Br)cc1)S(=O)(=O)c1ccc(-c2cnc(C3CC3)o2)cc1", "65.9% (inactive)"),
    ("Cn1c(SC(C(=O)Nc2ccc(F)cc2)c2ccccc2)nc2ccccc2c1=O (centres undefined)", "106% (inactive)"),
    ("Nc1nc(N)c2c(n1)NC(c1ccccc1)CC(c1ccc(Nc3nc(NCCO)nc(Nc4ccc(Cl)cc4)n3)cc1)=N2 (centres undefined)", "76.5% (inactive)"),
    ("O=c1[nH]c(CNc2ccc(NCc3c(-c4ccccc4)no[n+]3[O-])cc2)nc2c1cnn2-c1ccccc1", "73.5% (inactive)"),
]
